Tested on: HL-60
ASSAY SUMMARY: NCI tumour cell line growth inhibition, 48 h
The source made the active and inactive calls. Rule as the data show it: active = GI50 up to about 1.1 µM and inactive = higher.
READOUT TYPE: GI50

{"COMPOUND": "COc1cc(/C=C2\\C(=O)N(c3ccc(Cl)cc3)C(c3ccccc3)S2(=O)=O)cc(OC)c1OC (stereo unspecified)", "VALUE": "5.04 µM (inactive)"}
{"COMPOUND": "O=C(CC(=O)Nc1ccccc1Cl)NNC(c1cc(/N=N/c2ccc(Br)cc2)ccc1O)P(O)O (stereo unspecified)", "VALUE": "0.323 µM (active)"}
{"COMPOUND": "c1ccc(OCCSCCCCCCCCCCSCCOc2ccccc2)cc1", "VALUE": "> 100 µM (inactive)"}
{"COMPOUND": "Cc1c(C(=O)/C=C/c2ccccc2Cl)[n+]([O-])c2ccccc2[n+]1[O-]", "VALUE": "12.3 µM (inactive)"}
{"COMPOUND": "OCC1=C[C@@](COCc2ccccc2)(OCc2ccccc2)[C@@H](OCc2ccccc2)[C@@H]1OCc1ccccc1", "VALUE": "23.4 µM (inactive)"}
{"COMPOUND": "Cn1nc(-c2ccccc2)c(C(=O)/C=C/c2ccc(Cl)cc2)c(N2CCCCC2)c1=O", "VALUE": "1.82 µM (inactive)"}
{"COMPOUND": "c1cn(C23C4C5C6C4C2C6C53)cn1 (stereo unspecified)", "VALUE": "> 100 µM (inactive)"}
{"COMPOUND": "COc1cc(/C=C\\C(=O)O)ccc1OCc1ccccc1", "VALUE": "> 100 µM (inactive)"}
{"COMPOUND": "Nc1c(OCC(=O)O)ccc2cc(S(=O)(=O)O)ccc12", "VALUE": "> 100 µM (inactive)"}
{"COMPOUND": "O=C(NNC(=O)c1ccccc1O)c1ccc(O)cc1", "VALUE": "52.8 µM (inactive)"}
{"COMPOUND": "Nc1ccc(-c2nc3cc(F)ccc3s2)cc1", "VALUE": "25.4 µM (inactive)"}

* * *

System: SNB-19
ASSAY SUMMARY: NCI tumour cell line growth inhibition, 48 h
Calls of active or inactive are those of the source. No stated cut-off is given here; in the data, active = GI50 up to about 1.1 µM and inactive = higher.

{"MOLECULE": "CC1(C)CCC2=C(O1)/C(=N\\Nc1ccccc1)c1ccccc1C2=O", "GI50": "40.4 µM (inactive)"}
{"MOLECULE": "Cc1ccc(C2=NOC(=O)[C@@H]3CCCC[C@@H]23)cc1", "GI50": "> 100 µM (inactive)"}
{"MOLECULE": "CCCCNC(=O)OCCN=C1c2ccccc2C(Br)C(Br)c2ccccc21 (stereo unspecified)", "GI50": "24.9 µM (inactive)"}
{"MOLECULE": "OCC1=C[C@@](COCc2ccccc2)(OCc2ccccc2)[C@@H](OCc2ccccc2)[C@@H]1OCc1ccccc1", "GI50": "42.8 µM (inactive)"}
{"MOLECULE": "COc1ccc2c(c1)CCC(CN1CCN(CCOC(c3ccc(F)cc3)c3ccc(F)cc3)CC1)C2O (stereo unspecified)", "GI50": "17.2 µM (inactive)"}
{"MOLECULE": "CCOC(=O)C1CCn2c(nc3c(=O)n(C)c(=O)n(C)c32)S1 (stereo unspecified)", "GI50": "> 100 µM (inactive)"}

* * *

Tested on: SK-MEL-28
ASSAY SUMMARY: NCI tumour cell line growth inhibition, 48 h
Activity calls are given as the source filed them. No stated cut-off is given here; in the data, active = GI50 up to about 1.1 µM and inactive = higher.
# GI50 listing for each entry below

{"COMPOUND": "COC(=O)C#CCC1CCCC1C1SCCS1 (centres undefined)", "GI50": "> 100 µM (inactive)"}
{"COMPOUND": "CCOc1cc(C=O)ccc1O", "GI50": "> 100 µM (inactive)"}
{"COMPOUND": "c1ccc2c(c1)nc1n2CSC1", "GI50": "> 100 µM (inactive)"}
{"COMPOUND": "CC12CCC(C)(c3cc(O)c(O)cc31)c1cc(O)c(O)cc12", "GI50": "16.4 µM (inactive)"}

* * *

System: COLO 205
ASSAY SUMMARY: NCI tumour cell line growth inhibition, 48 h
Active and inactive are the calls of the source. Rule as the data show it: active = GI50 up to about 1.1 µM and inactive = higher.

{"COMPOUND": "Cc1c(NC(=S)N/N=C\\C(=N/NC(=S)Nc2c(C)n(C)n(-c3ccccc3)c2=O)c2ccccc2)c(=O)n(-c2ccccc2)n1C", "GI50": "> 100 µM (inactive)"}
{"COMPOUND": "CC(C)CC(N/C=C1/N=C(c2ccccc2)OC1=O)C(=O)O (stereo not drawn)", "GI50": "> 100 µM (inactive)"}
{"COMPOUND": "CCOC(=O)c1oc2cc3c(c4c2c1-c1ccccc1N4C)C=CC(C)(C)O3", "GI50": "> 65.3 µM (inactive)"}
{"COMPOUND": "c1cc(-c2ccc(-c3ccc(C4=NC5CCCCC5N4)cc3)o2)ccc1C1=NC2CCCCC2N1 (stereo not drawn)", "GI50": "1.5 µM (inactive)"}
{"COMPOUND": "COc1cc(/C=C/C(=O)CC(=O)/C=C/c2ccc(O)c(OC)c2)ccc1O", "GI50": "13.5 µM (inactive)"}
{"COMPOUND": "COC(=O)C1OC2(CCCC3CC32)O[C@H]1C(=O)OC (stereo partly drawn)", "GI50": "> 100 µM (inactive)"}
{"COMPOUND": "COC(=O)C1=C(O)c2cc3c(cc2[C@H](c2cc(OC)c(OC)c(OC)c2)C1)OCO3", "GI50": "19.3 µM (inactive)"}
{"COMPOUND": "CCCCCCCCCCCC(=O)C1=C(O)CCC(O)C1=O (stereo not drawn)", "GI50": "15.1 µM (inactive)"}
{"COMPOUND": "Cc1c(NC(=O)Nc2c(Cl)cccc2Cl)c(=O)n(-c2ccccc2)n1C", "GI50": "> 100 µM (inactive)"}
{"COMPOUND": "Cc1cccc(C)c1NC(=O)CCC(=O)/N=C(\\N)NC#N", "GI50": "> 100 µM (inactive)"}
{"COMPOUND": "OC(C/C=N/N=C/CC(O)(C(F)(F)Cl)C(F)(F)Cl)(C(F)(F)Cl)C(F)(F)Cl", "GI50": "> 10 µM (inactive)"}
{"COMPOUND": "CC1(c2ccc(Cl)cc2)c2ccccc2C(=O)N1CCCN1C(=O)c2ccccc2C1=O (stereo not drawn)", "GI50": "18.5 µM (inactive)"}
{"COMPOUND": "N#CCCN(CCC#N)c1ccc(/C=C2\\N=C(c3ccccc3)N(c3ccc(F)cc3)C2=O)cc1", "GI50": "> 100 µM (inactive)"}

* * *

Tested on: IGROV-1
ASSAY SUMMARY: NCI tumour cell line growth inhibition, 48 h
Activity calls are given as the source filed them. Cut-off read from the data, not from the text of the source: active = GI50 up to about 1.1 µM and inactive = higher.

{"SMILES": "O=C(O)CCCCCCC[C@H]1S[C@H]1CCCCCCO", "GI50": "> 100 µM (inactive)"}
{"SMILES": "CN(C)CCNC(=O)c1cccc2cc3cc(O)ccc3nc12", "GI50": "1.37 µM (inactive)"}
{"SMILES": "COc1ccc2nc3cc(Cl)ccc3c(NCCNCCCNC(=O)c3cc(-c4ccccc4)nc4ccccc34)c2c1", "GI50": "> 100 µM (inactive)"}

* * *

Tested on: BT-549
ASSAY SUMMARY: NCI tumour cell line growth inhibition, 48 h
The source made the active and inactive calls. Cut-off read from the data, not from the text of the source: active = GI50 up to about 1.1 µM and inactive = higher.
The entries below come with measured GI50 values attached.

{"COMPOUND": "CSc1ncc2c(n1)-c1ccccc1OC2", "GI50": "43 µM (inactive)"}
{"COMPOUND": "OCC1=C[C@@](COCc2ccccc2)(OCc2ccccc2)[C@@H](OCc2ccccc2)[C@@H]1OCc1ccccc1", "GI50": "24.7 µM (inactive)"}
{"COMPOUND": "Cc1ccc(C2=NOC(=O)[C@@H]3CCCC[C@@H]23)cc1", "GI50": "> 100 µM (inactive)"}
{"COMPOUND": "COC(=O)[C@]12C3=C(O)C(=O)C[C@H]1OC[C@H]2C=CC3", "GI50": "> 100 µM (inactive)"}
{"COMPOUND": "Oc1c(C2=NNC(c3ccc(Cl)cc3Cl)C2)ccc2ccccc12 (configuration not stated)", "GI50": "69.2 µM (inactive)"}
{"COMPOUND": "C=CC(C)(C)c1cc([C@@H]2COc3cc(O)ccc3C2=O)c(O)c(O)c1OC", "GI50": "18 µM (inactive)"}
{"COMPOUND": "CC(C)OP(=O)(c1ccccc1)c1ccc2c(c1)OCCOCCOCCOCCO2 (configuration not stated)", "GI50": "> 100 µM (inactive)"}

* * *

# GI50 annotations
Test system: A498
ASSAY SUMMARY: NCI tumour cell line growth inhibition, 48 h
The source made the active and inactive calls. No stated cut-off is given here; in the data, active = GI50 up to about 1.1 µM and inactive = higher.

{"MOLECULE": "S=C1/C(=N/c2ccccc2)N(C2CCCCC2)/C(=N\\C2CCCCC2)N1c1ccccc1", "GI50": "> 100 µM (inactive)"}
{"MOLECULE": "S=c1c2nc[nH]c2ncn1CCSC1=NC=NC2=NC=NC21 (stereo not given)", "GI50": "> 100 µM (inactive)"}
{"MOLECULE": "COc1ccc(Nc2nc3ccccc3nc2C(=O)O)cc1OC", "GI50": "21.3 µM (inactive)"}
{"MOLECULE": "C/C(=N\\NC(=O)c1ccncc1)c1sc(-n2nc(-c3ccccc3)cc2-c2ccccc2)nc1C", "GI50": "> 100 µM (inactive)"}
{"MOLECULE": "COc1cc(I)c2c3c1OC1C34CCN(C)C(C2)C4=CC(I)C1(OC)OC (stereo not given)", "GI50": "32.2 µM (inactive)"}
